target: Dickkopf-related protein 1 (Homo sapiens) (UniProt O94907); experiment: DKK1 binders on small-molecule microarrays, primary screen, biochemical, small-molecule microarray, 635 nm fluorescence scan (AID 1106); settings: DKK1 binding, higher = more signal;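 note: score merges emission near 667 nm with signal to noise over three replicate slides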
Sequence (O94907 whole entry, looked up): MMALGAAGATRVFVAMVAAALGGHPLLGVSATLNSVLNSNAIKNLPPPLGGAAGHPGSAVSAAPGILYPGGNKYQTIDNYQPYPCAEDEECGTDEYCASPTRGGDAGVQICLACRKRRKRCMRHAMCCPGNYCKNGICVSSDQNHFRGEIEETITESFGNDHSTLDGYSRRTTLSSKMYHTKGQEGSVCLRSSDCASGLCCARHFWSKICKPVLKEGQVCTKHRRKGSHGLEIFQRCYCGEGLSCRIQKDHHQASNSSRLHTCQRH
Parameter threshold = -0.3. Response is 1 (yes) when composite z-score meets or exceeds it, else 0 (no).

Look over these answered cases.
compound: COc1cc(NN2C(C(O)C3CCCCC3)C=CC3C(=O)N(c4ccccc4)C(=O)C32)cc(OC)c1OC (centres undefined)
groupLabel: 0 (no)

compound: C=C(/C(=C/C[C@@H](OC(C)=O)c1ccc(CO)o1)c1cc(C(=O)OC)ccc1OC)C(C)C
groupLabel: 1 (yes)

compound: CS(=O)(=O)CCOC(=O)C1=CC(CCCO)=CC(C2CC2)N(Cc2cccc(OC(F)(F)F)c2)C=C1C(=O)OCCS(C)(=O)=O (centres undefined)
groupLabel: 0 (no)

compound: COC(=O)[C@@]1(Cc2ccc(F)cc2)[C@H]2c3cc(C(=O)N4CCCC4)n(CC4CC4)c3C[C@H]2CN1C(=O)c1ccccc1
groupLabel: 1 (yes)

compound: C[C@@H]1ON(c2ccc(I)cc2)[C@H](c2ccc(OC(=O)OC(C)(C)C)cc2)[C@H]1C(=O)N1C(=O)OC[C@H]1Cc1ccccc1
groupLabel: 1 (yes)

[ask] Identify whether the reported composite z-score of the following compound is -0.3 or greater: C=CCC(OC(C)=O)[C@@H]1[C@@H](N(Cc2ccc(-c3cccc(C(F)(F)F)c3)o2)C(=O)c2ccc(C)cc2)c2cc(OCCCO)ccc2N1C(=O)Cc1ccc(OC)cc1 (some centres undefined)
[reply] 1 (yes)

[ask] Identify whether the reported composite z-score of the following compound is -0.3 or greater: COc1ccc([Si](C)(C)[C@H]2[C@H](CC(=O)N3Cc4ccccc4C[C@H]3CO)O[C@@]3(C(=O)N(Cc4ccc(N5C(=O)c6cccc7cccc5c67)cc4)c4ccccc43)[C@@H]2C)cc1
[reply] 1 (yes)

[ask] Identify whether the reported composite z-score of the following compound is -0.3 or greater: CN(C)C(=O)[C@@]1(CCC(=O)OC(C)(C)C)N=C(c2ccc(OCCCO)cc2)O[C@H]1c1ccccc1CN=[N+]=[N-]
[reply] 0 (no)

[ask] Identify whether the reported composite z-score of the following compound is -0.3 or greater: C=CCC(OC(C)=O)[C@@H]1[C@@H](N(Cc2cccc3ccccc23)C(=O)Cc2ccc(F)cc2)c2cc(OCCCO)ccc2N1C(=O)c1ccc(-c2ccccc2)cc1 (some centres undefined)
[reply] 0 (no)

[ask] Identify whether the reported composite z-score of the following compound is -0.3 or greater: CCOC(=O)C[C@H]1[C@H](OC(=O)c2ccc(C(=O)c3ccccc3)cc2)[C@@H](NC(=O)CC(C)C)c2cc(OCCCO)ccc2N1C(=O)Cc1ccc(OC)cc1
[reply] 1 (yes)

[ask] Identify whether the reported composite z-score of the following compound is -0.3 or greater: COC(=O)[C@@]1(Cc2ccc(OC)cc2)[C@H]2c3cc(C(=O)N4CCCC4)n(Cc4ccc(OC(F)(F)F)cc4)c3C[C@H]2CN1C(=O)c1ccccc1
[reply] 0 (no)

[ask] Identify whether the reported composite z-score of the following compound is -0.3 or greater: O=C(O)[C@@H]1C[C@@H]2C(=O)N3CCC[C@H]3C(=O)N2[C@@H]1c1cccc(OCCO)c1
[reply] 1 (yes)

[ask] Identify whether the reported composite z-score of the following compound is -0.3 or greater: COc1ccc(C(O)C2C=CC3C(=O)N(c4ccccc4)C(=O)C3N2Nc2ccccc2)cc1 (centres undefined)
[reply] 1 (yes)

[ask] Identify whether the reported composite z-score of the following compound is -0.3 or greater: C=C(C)[C@@H]1CC=C(C(O)C2C=CC3C(=O)N(c4ccccc4)C(=O)C3N2Nc2ccc(C#N)cc2)CC1 (some centres undefined)
[reply] 1 (yes)
